# system: UGT-mediated glucuronidation of molidustat in human liver microsomes (HLMs) (Homo sapiens, UniProt P22309)
# experimentalDetails: Inhibition of M1 formation from molidustat in pooled human liver microsomes
# Format: in vitro ADME
# recordedConditions: pooled HLMs 0.3 mg/mL, molidustat 5 µmol/L, 30 min, N=1; Table 1
Each record here notes measured IC50.
measurementLabel: IC50 (µM)

INSERT INTO results (compound, measurementlabel, unitofmeasurement, recordedmeasurement) VALUES
  ('C#C[C@]1(O)CC[C@H]2[C@@H]3CCc4cc(O)ccc4[C@H]3CC[C@@]21C [17a‐Ethynylestradiol]', 'IC50', 'µM', 10.8),
  ('Cc1ccc(C)c(OCCCC(C)(C)C(=O)O[C@@H]2O[C@H](C(=O)O)[C@@H](O)[C@H](O)[C@H]2O)c1 [Gemfibrozil glucuronide]', 'IC50', 'µM', 96.1);

====

Reported IC50 at 30 min values for the following compounds.
# system: UGT-mediated glucuronidation of molidustat (M1 formation) (Homo sapiens, UniProt P22309)
# Sequence (P22309 26-533): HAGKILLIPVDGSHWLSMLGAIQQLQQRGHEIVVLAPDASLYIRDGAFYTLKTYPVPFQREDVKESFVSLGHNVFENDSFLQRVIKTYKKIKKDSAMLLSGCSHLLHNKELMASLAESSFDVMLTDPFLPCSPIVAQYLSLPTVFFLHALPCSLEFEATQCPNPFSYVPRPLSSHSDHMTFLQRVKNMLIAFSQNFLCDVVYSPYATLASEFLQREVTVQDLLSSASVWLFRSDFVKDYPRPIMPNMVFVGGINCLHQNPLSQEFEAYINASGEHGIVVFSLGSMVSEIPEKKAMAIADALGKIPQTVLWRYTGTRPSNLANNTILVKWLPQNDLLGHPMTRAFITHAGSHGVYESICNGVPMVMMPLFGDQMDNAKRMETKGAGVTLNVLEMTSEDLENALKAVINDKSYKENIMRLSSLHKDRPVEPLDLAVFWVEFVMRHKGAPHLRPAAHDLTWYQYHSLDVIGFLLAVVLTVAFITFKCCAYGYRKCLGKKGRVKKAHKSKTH
# experimentalDetails: Inhibition of M1 formation from molidustat in pooled human liver microsomes
# Type: in vitro ADME
# recordedConditions: human, pooled human liver microsomes, probe molidustat 5 µmol/L (formation of M1), IC50, pooled HLMs 0.3 mg/mL, N=1, Table 1
measurementLabel: IC50 at 30 min

INSERT INTO measurements (compound, recordedmeasurement) VALUES
  ('O=c1c(-c2ccc(O)cc2)coc2cc(O)cc(O)c12', '2300 nM'),
  ('C#Cc1cccc(Nc2ncnc3cc(OCCOC)c(OCCOC)cc23)c1', '130 nM'),
  ('COc1ccc(CCN2CCC(Nc3nc4ccccc4n3Cc3ccc(F)cc3)CC2)cc1', '23500 nM'),
  ('COc1cc2ncnc(Nc3ccc(F)c(Cl)c3)c2cc1OCCCN1CCOCC1', '1800 nM'),
  ('CC[C@H](C)C(=O)O[C@H]1CCC=C2C=C[C@H](C)[C@H](CC[C@@H]3C[C@@H](O)CC(=O)O3)[C@H]21', '13200 nM'),
  ('CC1=C(CC(=O)O)c2cc(F)ccc2/C1=C\c1ccc([S+](C)[O-])cc1 (centres unmarked)', '37500 nM'),
  ('CCC(C)n1ncn(-c2ccc(N3CCN(c4ccc(OCC5COC(Cn6cncn6)(c6ccc(Cl)cc6Cl)O5)cc4)CC3)cc2)c1=O (centres unmarked)', '1200 nM'),
  ('CCCc1nc2c(C)cc(-c3nc4ccccc4n3C)cc2n1Cc1ccc(-c2ccccc2C(=O)O)cc1', '2800 nM');

====

# system: UGT-mediated glucuronidation of molidustat (M1 formation) (Homo sapiens, UniProt P22309)
# experimentalDetails: Inhibition of M1 formation from molidustat in pooled human liver microsomes
# Type: in vitro ADME
# recordedConditions: human, pooled human liver microsomes, probe molidustat 5 µmol/L (formation of M1), IC50, pooled HLMs 0.3 mg/mL, N=1, Table 1
measurementLabel: log10 of IC50 at 30 min (log10 of the value in µM)

INSERT INTO measurements (molecule, system, recordedmeasurement) VALUES
  ('C[C@]12CC[C@@H](O)C[C@@H]1CC[C@@H]1[C@@H]2CC[C@]2(C)C(=O)CC[C@@H]12', 'UGT-mediated glucuronidation of molidustat (M1 formation) (Homo sapiens, UniProt P22309)', 1.64),
  ('Cc1c(OCC(F)(F)F)ccnc1C[S+]([O-])c1nc2ccccc2[nH]1 (stereo not drawn)', 'UGT-mediated glucuronidation of molidustat (M1 formation) (Homo sapiens, UniProt P22309)', 1.57),
  ('CC(C)=CCC/C(C)=C/COc1c2ccoc2cc2oc(=O)ccc12', 'UGT-mediated glucuronidation of molidustat (M1 formation) (Homo sapiens, UniProt P22309)', 1.17),
  ('Cc1c(O)cccc1C(=O)N[C@@H](CSc1ccccc1)[C@H](O)CN1C[C@H]2CCCC[C@H]2C[C@H]1C(=O)NC(C)(C)C', 'UGT-mediated glucuronidation of molidustat (M1 formation) (Homo sapiens, UniProt P22309)', 0.18),
  ('O=C(O)Cc1ccccc1Nc1c(Cl)cccc1Cl', 'UGT-mediated glucuronidation of molidustat (M1 formation) (Homo sapiens, UniProt P22309)', 1.58),
  ('Cc1ccc(-c2cc(C(F)(F)F)nn2-c2ccc(S(N)(=O)=O)cc2)cc1', 'UGT-mediated glucuronidation of molidustat (M1 formation) (Homo sapiens, UniProt P22309)', 1.03),
  ('COc1ccc(Cl)cc1C(=O)NCCc1ccc(S(=O)(=O)NC(=O)NC2CCCCC2)cc1 [Glibenclamide]', 'UGT-mediated glucuronidation of molidustat (M1 formation) (Homo sapiens, UniProt P22309)', 0.80),
  ('COc1cc(N)c(Cl)cc1C(=O)NC1CCN(CCCOc2ccc(F)cc2)CC1OC (stereo not drawn) [Cisapride]', 'UGT-mediated glucuronidation of molidustat (M1 formation) (Homo sapiens, UniProt P22309)', 0.61),
  ('COc1ccccc1OCCNCC(O)COc1cccc2[nH]c3ccccc3c12 (stereo not drawn)', 'UGT-mediated glucuronidation of molidustat (M1 formation) (Homo sapiens, UniProt P22309)', 0.46),
  ('CC[C@H](C)C(=O)O[C@H]1C[C@@H](C)C=C2C=C[C@H](C)[C@H](CC[C@@H]3C[C@@H](O)CC(=O)O3)[C@H]21', 'UGT-mediated glucuronidation of molidustat (M1 formation) (Homo sapiens, UniProt P22309)', 1.02),
  ('COc1ccc(/C=C/C(=O)Nc2ccccc2C(=O)O)cc1OC', 'UGT-mediated glucuronidation of molidustat (M1 formation) (Homo sapiens, UniProt P22309)', 0.23),
  ('O=C1C[C@@H](c2ccc(O)cc2)Oc2cc(O)cc(O)c21', 'UGT-mediated glucuronidation of molidustat (M1 formation) (Homo sapiens, UniProt P22309)', 1.06);
